- MEASUREMENT DESCRIPTION: NCI Yeast Anticancer Drug Screen. Data for the mlh1 rad18 strain (AID 175)
- CONDITION CONTEXT: S. cerevisiae mlh1 rad18 strain growth inhibition; at 50.0 µM (retest, dose inferred, filed as 5.0)
- Protocol: Growth inhibition of yeast strains with defined genetic alterations is measured as a screen for potential anti-cancer activity. Selected strains with alterations in DNA damage repair or cell cycle control were exposed to compounds and growth inhibition was measured relative to vehicle treated controls. The strain used in this assay is mlh1 rad18
The panel holds about 79,000 compounds, 15% with a hit somewhere; the sample as a whole holds those more often. The source made the active and inactive calls. Rule as the data show it: active = growth inhibition above about 70%; inactive = the rest.
Reply using exactly one outcome from active, inactive

I'd appreciate the recorded outcome for "C[CH2][Sn][CH2]C.c1cc[c]([Ge]([c]2ccccc2)[c]2ccccc2)cc1.c1cc[c]([Sn]([c]2ccccc2)[c]2ccccc2)cc1" from this test. active

Called result for "O=S(=O)([O-])[O-].[OH3+].[OH3+].[OH3+].[Ru+2].c1ccccc1" inactive

I would be grateful if you could indicate the recorded call for "O=C(COc1ccc(Cl)cc1Cl)NO" . inactive

Record request — test call for "Cc1ccc2ccccc2c1NC1=NCCO1" inactive

Which outcome was entered for the compound "Brc1ccc(N2C[N+](c3ccc(Br)cc3)=NC(c3ccccc3)=N2)cc1" in this test? active

Identify the outcome logged in this assay for the compound shown: "O=C(CCN1CC1)NCCc1ccccc1" active

Hey, what did the test say about "Oc1ccc2ccccc2c1O" ? active

Hi team, can someone confirm the assay call for "COc1ccc(C2N(Cc3ccc(N(CCCl)CCCl)cc3C)CCCN2Cc2ccc(N(CCCl)CCCl)cc2C)cc1" ? active

Hi team, can someone confirm the assay call for "ClCC[N+]12CC[N+](CCCl)(CC1)C2" ? active

Given CC1CC(C)CC(C)C(O)/C(C#N)=C/C=C/CC(C2CCCC2C(=O)O)OC(=O)CC(O)C(C)C1 (centres undefined) , state the outcome it received in this test. active

Recorded call for "Fc1ccc(NP(=S)(Nc2ccc(F)cc2F)Nc2ccc(F)cc2F)c(F)c1" ? active

Call for entry O=C(O)C(O)(c1ccccc1)C1(O)CCCCC1 (centres undefined) : inactive

Could you please tell me the result logged for "N#CC(C#N)=Cc1ccc(C#N)cc1" in this assay? active

Could you check what this test reported for "O=[N+]([O-])c1cc([N+](=O)[O-])c(Cl)cc1F" ? active

Called result for "NCCBr" inactive

// outcome(item) with item = "CC1(C)N=C(N)N=C(N)N1c1cccc(N)c1.[Sn]" active

Tell me the recorded outcome of this test for "COP(=S)(OC)N(C)C(=O)Oc1cccc2ccccc12" . active

What is the recorded call for this compound in the test? C/C(=N\NS(=O)(=O)c1ccc(C)cc1)C(CN1CCOCC1)C(c1ccccc1)c1c(O)c2ccccc2oc1=O (centres undefined) inactive

Could you check what this test reported for Cc1ccc(NP(=O)(Oc2ccccc2)N(CCCl)CCCl)cc1 (centres undefined) ? inactive

For this compound, state the assay outcome: O=C1c2ccccc2[Se](=O)N1c1ccccc1 (centres undefined) active

For this compound, state the assay outcome: "CCCCCOC(=O)CCl" inactive

Kindly provide the recorded test outcome for the following compound: CC(CN1CCCCCCC1)C(C#N)(c1ccccc1)c1ccccc1 (centres undefined) inactive

Check the results log: what was the call for "Cn1cc(/C=C/[N+](=O)[O-])c2ccccc21" ? active

Recorded call for O=C(O)C1(c2ccccc2)OC1c1ccccc1 (centres undefined) ? active
